Hey, just so you know, these numbers are from ChEMBL document CHEMBL1961873.

Target: Protein kinase C eta type (Homo sapiens);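 further: value is the mean inhibition, from GSK PKIS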
Settings: at 1 µM
experimentalEndpoint: inhibition (%)
Form entry: value (%) — number only.

Example compounds with recorded inhibition:
COc1cc2c(cc1Nc1nc(Nc3ccsc3C(N)=O)c3cc[nH]c3n1)N(C(=O)CN(C)C)CCC2	3.46
Fc1ccc(-c2ncn(C3CCNCC3)c2-c2ccnc(Oc3ccccc3)n2)cc1	1.37
Nc1nonc1-c1nc2cnccc2n1C1CCCCC1	88.5

Recorded inhibition of Cc1cc(-c2ccco2)cc(C)c1/C=C/c1cncc(-c2nn[nH]n2)c1 , please.
2.42

Okay, and CCn1c(-c2nonc2N)nc2c(C#CCN)ncc(OCCCN)c21 ?
73.4

And then NC(=O)c1sc(-n2cnc3cc(C(F)(F)F)ccc32)cc1OCc1ccccc1Br , what is it?
-0.28

Field entry: CCn1c(-c2nonc2N)nc2c(C#CC(C)(C)O)ncc(OCC3CCNCC3)c21
97.8

###

Molecular target: Tyrosine-protein kinase JAK3 (Homo sapiens)
Sequence (whole entry): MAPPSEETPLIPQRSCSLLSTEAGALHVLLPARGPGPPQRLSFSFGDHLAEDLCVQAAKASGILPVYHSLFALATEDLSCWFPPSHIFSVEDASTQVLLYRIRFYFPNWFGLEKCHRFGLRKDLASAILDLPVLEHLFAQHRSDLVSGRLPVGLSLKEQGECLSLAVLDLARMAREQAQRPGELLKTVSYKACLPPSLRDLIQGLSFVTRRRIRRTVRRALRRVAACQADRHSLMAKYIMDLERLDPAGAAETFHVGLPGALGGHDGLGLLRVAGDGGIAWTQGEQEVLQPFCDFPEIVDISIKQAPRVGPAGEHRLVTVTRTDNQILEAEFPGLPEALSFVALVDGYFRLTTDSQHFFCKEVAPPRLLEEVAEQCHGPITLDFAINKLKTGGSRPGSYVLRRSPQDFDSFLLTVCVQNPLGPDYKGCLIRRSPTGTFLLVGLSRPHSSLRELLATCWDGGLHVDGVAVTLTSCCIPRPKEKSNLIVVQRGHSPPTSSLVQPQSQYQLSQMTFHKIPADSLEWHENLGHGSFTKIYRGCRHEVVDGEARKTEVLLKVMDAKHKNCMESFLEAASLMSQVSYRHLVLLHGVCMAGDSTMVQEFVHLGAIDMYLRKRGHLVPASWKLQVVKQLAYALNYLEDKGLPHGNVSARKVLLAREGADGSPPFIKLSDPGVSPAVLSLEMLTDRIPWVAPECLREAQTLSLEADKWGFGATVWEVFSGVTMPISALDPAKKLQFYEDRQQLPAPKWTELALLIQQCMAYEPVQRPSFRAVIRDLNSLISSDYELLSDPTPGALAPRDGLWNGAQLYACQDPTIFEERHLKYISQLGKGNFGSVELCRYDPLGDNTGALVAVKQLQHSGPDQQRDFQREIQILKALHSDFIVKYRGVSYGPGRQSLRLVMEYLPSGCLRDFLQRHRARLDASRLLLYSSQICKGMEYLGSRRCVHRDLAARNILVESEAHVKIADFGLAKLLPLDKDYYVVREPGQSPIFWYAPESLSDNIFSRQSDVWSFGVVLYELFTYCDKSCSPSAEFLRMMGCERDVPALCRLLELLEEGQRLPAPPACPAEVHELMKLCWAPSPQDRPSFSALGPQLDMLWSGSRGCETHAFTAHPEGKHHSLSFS
Conditions: at 1 µM
Description: GSK_PKIS: JAK3 mean inhibition at 1 uM [Nanosyn]
experimentalEndpoint: inhibition (%)
Just the number please, in %, no unit attached.

Use these answered entries as a reference point.
CCn1c(-c2nonc2N)nc2c(C#CC(C)(C)O)ncc(OCC3CCNCC3)c21	-3.39
NC(=O)c1sc(-n2cnc3cc(C(F)(F)F)ccc32)cc1OCc1ccccc1Br	0.71
CCn1c(-c2nonc2N)nc2c(C#CC(C)(C)O)ncc(OC[C@@H]3CCCN3)c21	0.33
COc1cccc(-n2ncc3c(N/N=C/c4ccncc4)ncnc32)c1	10.6

// returns reported inhibition for input CCn1c(-c2nonc2N)nc2c(C#CC(C)(C)O)nc(O[C@@H](CN)c3ccccc3)cc21
3.54

###

Quick reference for inhibition among some compounds
Biological target: Phosphatidylinositol 4,5-bisphosphate 3-kinase catalytic subunit delta isoform (Homo sapiens) (UniProt O00329);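 further: values are mean percent inhibition of PI3K-delta, part of the GSK PKIS screen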
Sequence (O00329 whole entry, canonical isoform): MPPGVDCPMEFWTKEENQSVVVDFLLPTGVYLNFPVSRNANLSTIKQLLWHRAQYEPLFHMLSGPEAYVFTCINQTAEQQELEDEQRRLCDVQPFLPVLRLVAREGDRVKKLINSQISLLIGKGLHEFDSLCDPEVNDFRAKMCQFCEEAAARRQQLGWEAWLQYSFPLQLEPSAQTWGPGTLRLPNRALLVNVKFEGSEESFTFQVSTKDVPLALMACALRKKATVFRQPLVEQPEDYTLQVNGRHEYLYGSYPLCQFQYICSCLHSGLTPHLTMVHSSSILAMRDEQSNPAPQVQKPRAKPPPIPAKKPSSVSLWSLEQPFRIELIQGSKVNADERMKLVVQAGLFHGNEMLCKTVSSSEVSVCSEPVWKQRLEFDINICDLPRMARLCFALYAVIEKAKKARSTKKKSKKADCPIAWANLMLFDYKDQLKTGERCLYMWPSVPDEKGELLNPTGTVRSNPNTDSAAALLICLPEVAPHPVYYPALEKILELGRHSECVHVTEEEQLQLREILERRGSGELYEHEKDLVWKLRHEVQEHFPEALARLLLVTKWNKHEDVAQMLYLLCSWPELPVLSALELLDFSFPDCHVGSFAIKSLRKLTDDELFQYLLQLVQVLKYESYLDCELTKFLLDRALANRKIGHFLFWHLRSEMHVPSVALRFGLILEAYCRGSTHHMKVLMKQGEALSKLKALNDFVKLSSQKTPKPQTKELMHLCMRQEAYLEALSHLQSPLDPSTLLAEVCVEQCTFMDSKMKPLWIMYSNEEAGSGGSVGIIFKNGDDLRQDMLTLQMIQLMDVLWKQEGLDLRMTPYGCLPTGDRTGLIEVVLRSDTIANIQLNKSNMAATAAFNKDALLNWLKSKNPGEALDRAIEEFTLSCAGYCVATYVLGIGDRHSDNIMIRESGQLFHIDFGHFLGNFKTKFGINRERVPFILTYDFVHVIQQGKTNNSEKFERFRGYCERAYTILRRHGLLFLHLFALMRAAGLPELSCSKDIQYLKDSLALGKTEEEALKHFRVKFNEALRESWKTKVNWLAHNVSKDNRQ
Conditions: at 0.1 µM
Answer with a number only, understood to be in %.

COc1cc(C=NNc2ncnc3c2cnn3Cc2ccccc2)ccc1O	3.47
CCn1c(-c2nonc2N)nc2c(C#CC(C)(C)O)nc(O[C@@H](CN)c3ccccc3)cc21	2.44
NS(=O)(=O)c1ccc(-c2ccc3c(NC(=O)C4CC4)n[nH]c3c2)cc1	3.34
NC(=O)c1sc(-n2cnc3cc(C(F)(F)F)ccc32)cc1OCc1ccccc1Br	0.65

inhibition for Fc1ccc(-c2ncn(C3CCNCC3)c2-c2ccnc(Oc3ccccc3)n2)cc1 ?
0.6

CCn1c(-c2nonc2N)nc2c(C#CCN)ncc(OCCCN)c21 ?
-2.56

Repeat for the following compound: COc1cccc(COc2cc(-n3cnc4ccccc43)sc2C(N)=O)c1
1.62

###

// inhibition lookup, one value per entry
Target: Ribosomal protein S6 kinase beta-1 (Homo sapiens) (UniProt P23443);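 further: values are mean inhibition of p70S6K1, measured as part of the GSK PKIS panel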
Sequence (P23443 whole entry, looked up): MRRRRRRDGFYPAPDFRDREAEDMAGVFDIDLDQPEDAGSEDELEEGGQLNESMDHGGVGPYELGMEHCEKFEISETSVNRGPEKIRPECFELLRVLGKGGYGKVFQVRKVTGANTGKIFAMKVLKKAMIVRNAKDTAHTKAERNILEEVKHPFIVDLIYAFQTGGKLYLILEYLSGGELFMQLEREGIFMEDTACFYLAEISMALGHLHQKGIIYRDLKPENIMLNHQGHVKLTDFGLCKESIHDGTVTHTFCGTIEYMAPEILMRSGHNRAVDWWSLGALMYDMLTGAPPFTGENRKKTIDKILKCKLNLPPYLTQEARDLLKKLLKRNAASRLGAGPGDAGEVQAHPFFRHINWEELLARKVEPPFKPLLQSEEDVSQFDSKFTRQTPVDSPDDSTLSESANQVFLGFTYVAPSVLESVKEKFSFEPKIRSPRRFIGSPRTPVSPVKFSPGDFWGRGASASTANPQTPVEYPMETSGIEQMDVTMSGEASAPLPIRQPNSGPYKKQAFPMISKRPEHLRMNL
Conditions: at 1 µM
Note: unit % is implicit; provide only the numeric part.

Which measured inhibition value corresponds to NC(=O)c1sc(-n2cnc3cc(C(F)(F)F)ccc32)cc1OCc1ccccc1Br ?
-0.49

What about NS(=O)(=O)c1ccc(N/C=C2\C(=O)Nc3ccc4ncsc4c32)cc1 ?
13.5

Would you kindly repeat that for COc1cc(C=NNc2ncnc3c2cnn3Cc2ccccc2)ccc1O ?
-0.11

Try Nc1nonc1-c1nc2cnccc2n1C1CCCCC1 next.
91.2

Also check NS(=O)(=O)c1ccc(-c2ccc3c(NC(=O)C4CC4)n[nH]c3c2)cc1
2.84

Next: Fc1ccc(-c2ncn(C3CCNCC3)c2-c2ccnc(Oc3ccccc3)n2)cc1
7.24

Repeat for the following compound: COc1cc2c(cc1Nc1nc(Nc3ccsc3C(N)=O)c3cc[nH]c3n1)N(C(=O)CN(C)C)CCC2
0.53

###

Target: Tyrosine-protein kinase BTK (Homo sapiens) (UniProt Q06187);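 further: values are mean percent inhibition of BTK across replicate measurements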
Sequence (Q06187 whole entry): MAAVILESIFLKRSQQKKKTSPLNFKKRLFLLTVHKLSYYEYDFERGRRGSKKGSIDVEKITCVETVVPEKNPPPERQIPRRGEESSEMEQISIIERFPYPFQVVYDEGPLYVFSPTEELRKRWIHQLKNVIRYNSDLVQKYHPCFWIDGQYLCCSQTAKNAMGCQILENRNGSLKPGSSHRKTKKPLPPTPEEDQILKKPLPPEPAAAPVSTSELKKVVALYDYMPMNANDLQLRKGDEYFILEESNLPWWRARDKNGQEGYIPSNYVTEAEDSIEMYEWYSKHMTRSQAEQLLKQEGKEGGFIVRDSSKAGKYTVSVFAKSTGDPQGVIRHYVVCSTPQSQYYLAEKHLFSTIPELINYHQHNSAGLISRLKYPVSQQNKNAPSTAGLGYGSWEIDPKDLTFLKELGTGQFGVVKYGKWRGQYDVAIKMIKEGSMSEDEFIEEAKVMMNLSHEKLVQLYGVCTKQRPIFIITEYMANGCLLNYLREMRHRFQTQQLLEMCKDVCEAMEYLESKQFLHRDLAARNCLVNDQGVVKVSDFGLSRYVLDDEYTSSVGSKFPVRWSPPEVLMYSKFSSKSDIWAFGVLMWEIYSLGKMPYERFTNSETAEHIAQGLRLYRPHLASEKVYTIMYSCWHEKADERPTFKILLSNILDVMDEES
Conditions: at 1 µM
experimentalEndpoint: inhibition (%)
Your answer should be a plain number; it is taken to be in %.

// worked examples, inhibition included
NC(=O)c1sc(-n2cnc3cc(C(F)(F)F)ccc32)cc1OCc1ccccc1Br	-0.21
COc1cc(C=NNc2ncnc3c2cnn3Cc2ccccc2)ccc1O	-0.27

Give its inhibition value. Item: CCn1c(-c2nonc2N)nc2c(C#CC(C)(C)O)nc(O[C@@H](CN)c3ccccc3)cc21
-0.15

// query: COc1cc2c(cc1Nc1nc(Nc3ccsc3C(N)=O)c3cc[nH]c3n1)N(C(=O)CN(C)C)CCC2
1

Likewise for CCn1c(-c2nonc2N)nc2c(C#CC(C)(C)O)ncc(OC[C@@H]3CCCN3)c21 ?
1.17

Further, for CCn1c(-c2nonc2N)nc2c(C#CCN)ncc(OCCCN)c21 ?
2.06

###

Biological target: Platelet-derived growth factor receptor alpha (Homo sapiens) (UniProt P16234)
Sequence (P16234 whole entry): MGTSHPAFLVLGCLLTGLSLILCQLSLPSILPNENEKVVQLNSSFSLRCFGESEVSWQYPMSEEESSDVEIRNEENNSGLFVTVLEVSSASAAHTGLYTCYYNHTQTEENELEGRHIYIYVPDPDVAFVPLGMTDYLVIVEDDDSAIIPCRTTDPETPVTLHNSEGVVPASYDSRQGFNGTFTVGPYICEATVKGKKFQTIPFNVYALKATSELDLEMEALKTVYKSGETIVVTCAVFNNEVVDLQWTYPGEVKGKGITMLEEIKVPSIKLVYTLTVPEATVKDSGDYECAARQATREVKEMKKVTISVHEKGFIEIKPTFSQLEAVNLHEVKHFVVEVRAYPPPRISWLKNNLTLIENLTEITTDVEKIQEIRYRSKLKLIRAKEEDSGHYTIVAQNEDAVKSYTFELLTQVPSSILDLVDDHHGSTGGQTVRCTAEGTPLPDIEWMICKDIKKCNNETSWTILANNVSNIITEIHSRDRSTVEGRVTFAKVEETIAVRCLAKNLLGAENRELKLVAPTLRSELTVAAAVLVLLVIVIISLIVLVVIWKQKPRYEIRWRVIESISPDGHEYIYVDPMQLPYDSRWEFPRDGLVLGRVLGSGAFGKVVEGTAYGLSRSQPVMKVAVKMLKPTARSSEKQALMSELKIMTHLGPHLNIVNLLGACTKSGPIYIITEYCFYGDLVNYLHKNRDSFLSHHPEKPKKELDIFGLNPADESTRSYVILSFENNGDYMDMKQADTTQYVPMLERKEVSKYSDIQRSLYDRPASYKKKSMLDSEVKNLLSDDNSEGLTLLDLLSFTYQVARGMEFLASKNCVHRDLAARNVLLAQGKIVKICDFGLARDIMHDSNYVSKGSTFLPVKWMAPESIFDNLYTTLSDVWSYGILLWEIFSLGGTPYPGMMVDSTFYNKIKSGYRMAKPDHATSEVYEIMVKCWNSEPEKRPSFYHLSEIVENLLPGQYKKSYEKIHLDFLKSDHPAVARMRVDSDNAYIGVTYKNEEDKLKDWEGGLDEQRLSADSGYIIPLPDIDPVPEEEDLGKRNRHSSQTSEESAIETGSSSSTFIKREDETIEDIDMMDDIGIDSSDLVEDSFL
Settings: at 0.1 µM
Description: GSK_PKIS: PDGFRA mean inhibition at 0.1 uM [Nanosyn]
experimentalEndpoint: inhibition (%)
Value expressed in %; do not type the unit.

Observe how each entry below is paired with its result.
CCn1c(-c2nonc2N)nc2c(C#CC(C)(C)O)ncc(OC[C@@H]3CCCN3)c21	5.65
NS(=O)(=O)c1ccc(N/C=C2\C(=O)Nc3ccc4ncsc4c32)cc1	54.4
Fc1ccc(-c2ncn(C3CCNCC3)c2-c2ccnc(Oc3ccccc3)n2)cc1	5.35

Report inhibition for COc1cc2c(cc1Nc1nc(Nc3ccsc3C(N)=O)c3cc[nH]c3n1)N(C(=O)CN(C)C)CCC2 please.
11.4

Could you do the same for COc1cc(C=NNc2ncnc3c2cnn3Cc2ccccc2)ccc1O , please?
9.07

Please give the result for CCn1c(-c2nonc2N)nc2c(C#CC(C)(C)O)nc(O[C@@H](CN)c3ccccc3)cc21 too.
32

Continue with CCn1c(-c2nonc2N)nc2c(C#CCN)ncc(OCCCN)c21
7.42

Also, Cc1cc(-c2ccco2)cc(C)c1/C=C/c1cncc(-c2nn[nH]n2)c1 please.
5.56

Try the compound CCn1c(-c2nonc2N)nc2c(C#CC(C)(C)O)ncc(OCC3CCNCC3)c21
9.32

What about NS(=O)(=O)c1ccc(-c2ccc3c(NC(=O)C4CC4)n[nH]c3c2)cc1 ?
5.05

###

System: Tyrosine-protein kinase ABL1 (Homo sapiens), P00519 [E255K]
Sequence (P00519 whole entry E255K): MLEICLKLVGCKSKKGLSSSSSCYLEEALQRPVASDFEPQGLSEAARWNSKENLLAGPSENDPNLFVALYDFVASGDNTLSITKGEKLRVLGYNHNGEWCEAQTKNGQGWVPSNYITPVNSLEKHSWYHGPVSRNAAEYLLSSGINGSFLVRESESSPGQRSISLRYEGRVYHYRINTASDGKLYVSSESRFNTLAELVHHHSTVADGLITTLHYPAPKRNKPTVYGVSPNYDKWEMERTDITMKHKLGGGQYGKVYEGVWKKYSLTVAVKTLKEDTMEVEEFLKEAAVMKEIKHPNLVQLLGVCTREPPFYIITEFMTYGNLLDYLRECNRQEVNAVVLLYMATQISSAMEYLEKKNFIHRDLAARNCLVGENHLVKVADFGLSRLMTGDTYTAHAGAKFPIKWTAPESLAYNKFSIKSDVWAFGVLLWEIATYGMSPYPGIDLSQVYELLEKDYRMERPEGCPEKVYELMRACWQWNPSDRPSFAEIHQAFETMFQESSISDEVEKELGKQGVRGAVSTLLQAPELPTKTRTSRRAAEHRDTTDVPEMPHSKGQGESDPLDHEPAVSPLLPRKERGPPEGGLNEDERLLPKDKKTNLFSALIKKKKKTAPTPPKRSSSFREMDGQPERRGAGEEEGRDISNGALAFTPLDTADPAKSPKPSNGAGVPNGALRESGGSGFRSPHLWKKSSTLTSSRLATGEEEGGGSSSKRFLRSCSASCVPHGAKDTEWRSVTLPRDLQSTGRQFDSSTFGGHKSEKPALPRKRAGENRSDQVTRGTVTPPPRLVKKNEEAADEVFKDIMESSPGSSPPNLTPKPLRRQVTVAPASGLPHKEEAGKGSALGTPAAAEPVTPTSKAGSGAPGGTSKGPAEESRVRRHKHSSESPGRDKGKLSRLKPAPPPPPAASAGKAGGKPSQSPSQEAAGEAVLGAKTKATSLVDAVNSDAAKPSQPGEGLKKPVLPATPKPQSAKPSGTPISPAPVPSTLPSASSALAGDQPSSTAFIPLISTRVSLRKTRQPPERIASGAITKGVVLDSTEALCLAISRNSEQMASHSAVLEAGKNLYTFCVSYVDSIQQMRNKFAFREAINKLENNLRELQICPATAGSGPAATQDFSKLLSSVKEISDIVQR
Details: at 0.1 µM
Reported inhibition values for a set of compounds
Lab book: enter the figure in %, no units written.

Nc1nonc1-c1nc2cnccc2n1C1CCCCC1	-1.63

Returns the measured inhibition for the input compound. Input: CCn1c(-c2nonc2N)nc2c(C#CC(C)(C)O)ncc(OCC3CCNCC3)c21
-0.11

Consider next the compound COc1cccc(COc2cc(-n3cnc4ccccc43)sc2C(N)=O)c1 in the same way.
-0.78

Similarly, CCn1c(-c2nonc2N)nc2c(C#CCN)ncc(OCCCN)c21 ?
-4.53

And what about the compound NS(=O)(=O)c1ccc(N/C=C2\C(=O)Nc3ccc4ncsc4c32)cc1 ?
3.53

Same question, COc1cccc(-n2ncc3c(N/N=C/c4ccncc4)ncnc32)c1 this time
77
